Every entry's value here was drawn from the supplement of paper PMC12494721.

Can you tell me fold change of Cadaverine concentration for the items I'm about to list?
Test system: Klebsiella aerogenes DSM 30053
METHOD NOTES: fold change of Cadaverine concentration vs plate DMSO controls (fold change (ratio)); higher = more amine produced, active = hit call of the paper (significant change in both replicates, either direction)
TEST PARAMETERS: 20 µM; incubation time: 27 h, anaerobic, 37 °C
Answers are plain numbers.

| MOLECULE | fold change of Cadaverine concentration |
| --- | --- |
| N#Cc1c(Cl)c(Cl)c(Cl)c(C#N)c1Cl | 0.991 |

Required: fold change of Cadaverine concentration, one value per molecule below.
1. CN/C(=N/CC1CCOC1)N[N+](=O)[O-] (configuration not stated)
2. CC1(C)[C@H](C(=O)O[C@H](C#N)c2cccc(Oc3ccccc3)c2)[C@@H]1C=C(Br)Br
3. O=C(O)COc1ccc(Cl)cc1Cl
4. Nc1c(Cl)c(F)nc(OCC(=O)O)c1Cl

Found:
1: 0.999; 2: 1; 3: 1.01; 4: 1.01
